Source listed as patent US20160009793A1.

Biological target: T1, Aβ1-42 protofibrils (UniProt P05067 672-713)
T1 construct: domain: Aβ1-42; Aβ numbering is not APP numbering; also called Aβ protofibrils; Aβ-protofibrils
T1 sequence (P05067 672-713 limits assumed): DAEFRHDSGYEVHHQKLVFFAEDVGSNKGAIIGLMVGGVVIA
Experiment: inhibition ELISA: antibody pre-incubated in solution with Aβ protofibrils, then transferred to Aβ coated plates

| BINDER | binding result |
| --- | --- |
| A17D/R79T (antibody, human IgG1, kappa, V domains shown) VH: EVQLVESGGGLVQPGGSLRLSCSASGFTFSSFGMHWVRQAPGKGLEWVAYISSGSSTIYYGDTVKGRFTISRDNAKNSLFLQMSSLRAEDTAVYYCAREGGYYYGRSYYTMDYWGQGTTVTVSS VL: DVVMTQSPLSLPVTPGDPASISCRSSQSIVHSNGNTYLEWYLQKPGQSPKLLIYKVSNRFSGVPDRFSGSGSGTDFTLTISRVEAEDVGIYYCFQGSHVPPTFGPGTKLEIKR | binds |
